# reported conditions: in ethanol, 303.15 K
endpoint name: solubility (mole fraction)
Simply state the number, no unit and no words.

Measured solubility (mole fraction), `Cc1nc(-c2ccc(OCC(C)C)c(C#N)c2)sc1C(=O)O` : 0.00269
